- TESTED SYSTEM: recombinant Axl tyrosine kinase (Homo sapiens, UniProt P30530)
- Construct: encompassing amino acids 473 to 894 of Axl; GST (N); made in house; host or cells: SF126 insect cells
- TEST DESCRIPTION: In vitro Axl kinase assay (AlphaScreen), Test (a)
- Format: biochemical
- CONDITION NOTES: test compound at 1 μM; first value quoted
The entries below come with measured % Axl tyrosine kinase inhibition at 1 μM concentration values attached.
I only need the number, in %, no unit after it.

Value lookup for % Axl tyrosine kinase inhibition at 1 μM concentration; key = Nc1ncc(-c2ccc(C(=O)NCCCn3ccnc3)cc2)cc1-c1nc2cccnc2o1 [Example 45A.53]
98.8

Field entry: CN1CCCC(NC(=O)c2ccc(-c3cnc(N)c(-c4nc5cccnc5o4)c3)cc2)C1 (stereo not shown) [Example 45A.19]
98.7

====

- TESTED SYSTEM: recombinant Axl tyrosine kinase (Homo sapiens)
- Construct: encompassing amino acids 473 to 894 of Axl; GST (N); made in house; host or cells: SF126 insect cells
- TEST DESCRIPTION: In vitro Axl kinase assay (AlphaScreen), Test (a)
- Type: biochemical
- CONDITION NOTES: test compound at 1 μM; first value quoted
- Procedure: Test compounds were prepared as 10 mM stock solutions in dimethylsulphoxide (DMSO) and diluted in DMSO as required. Aliquots (120 nl) of compound dilutions were filled into the wells of a Greiner 384-well low volume (LV) white polystyrene plate (Greiner Bio-one) using acoustic dispensing (Labcyte Echo 550). […]
MEASURED PROPERTY: % Axl tyrosine kinase inhibition at 1 μM concentration (%)
Form entry: value (%) — number only.

// known answers, use as guide
COMPOUND | READING
Nc1ncc(-c2ccc(C(=O)N3CCC(CN4CCNCC4)CC3)cc2)cc1-c1nc2cccnc2o1 [Example 45A.98] | 97.6
COc1cc(-c2cnc(N)c(-c3nc4ncccc4o3)c2)ccc1OCCOCCN1CCNCC1 [Example 43C.35] | 99.2
COc1cc(-c2cnc(N)c(-c3nc4ncccc4o3)c2)ccc1OCC#CCN1CCS(=O)(=O)CC1 [Example 43C.20] | 98.1

Need % Axl tyrosine kinase inhibition at 1 μM concentration of Nc1ncc(-c2ccc(CO)cc2)cc1-c1nc2ccccc2o1 [Example 2.16] , thanks.
94.0

Now consider CN1CCC(n2cc(-c3cnc(N)c(-c4nc5c(F)cc(F)cc5o4)c3)cn2)CC1 [Example 7.6] .
99.9

Follow-up entry: Nc1ncc(-c2ccc(CN3CCOCC3)cc2)cc1-c1nc2ccncc2o1 [Example 11A.1]
99.6

And Nc1ncc(-c2cccc(C(=O)NC3CC3)c2)cc1-c1nc2ccncc2o1 [Example 11A.7] ?
80.3

What do we get for CCN(CC)CCOc1ccc(-c2cnc(N)c(-c3nc4ncccc4o3)c2)cc1 [Example 43B.3] ?
99.6

# repeat for NCc1cccc(-c2cnc(N)c(-c3nc4cnccc4o3)c2)c1 [Example 8A.27]
98.6

Repeat with CN1CCC(n2cc(-c3cnc(N)c(-c4nc5ccccc5o4)c3)c(N(C)C)n2)CC1 [Example 41.31]
99.9

Queued: Nc1ncc(-c2cccc(CN3CCCC3)c2)cc1-c1nc2ccncc2o1 [Example 11A.5]
97.4

Note, next up: Cc1nn(C2CCN(C)CC2)cc1-c1cnc(N)c(-c2nc3c(C#N)cccc3o2)c1 [Example 41.40]
99.2

====

- TESTED SYSTEM: recombinant Axl tyrosine kinase (Homo sapiens, UniProt P30530)
- Construct: encompassing amino acids 473 to 894 of Axl; GST (N); made in house; host or cells: SF126 insect cells
- TEST DESCRIPTION: In vitro Axl kinase assay (AlphaScreen), Test (a)
- Format: biochemical
- CONDITION NOTES: test compound at 1 μM; first value quoted
MEASURED PROPERTY: % Axl tyrosine kinase inhibition at 1 μM concentration (%)
Report only the number, with the unit % understood.

Example compounds with recorded % Axl tyrosine kinase inhibition at 1 μM concentration:
COMPOUND | READING
CN(C)C1CCC(NC(=O)c2ccc(-c3cnc(N)c(-c4nc5cccnc5o4)c3)cc2)CC1 (stereo not drawn) [Example 45A.24] | 95.8
CN(C)CCCNC(=O)c1ccc(-c2cnc(N)c(-c3nc4cnccc4o3)c2)cc1 | 99.8
COc1cccc2nc(-c3cc(-c4cn(C5CCN(C)CC5)nc4CO)cnc3N)oc12 | 100.0
Nc1ncc(-c2cccc(N3CCNCC3)c2)nc1-c1nc2ccccc2o1 | 99.6
NCC[C@H]1CCCN(C(=O)c2ccc(-c3cnc(N)c(-c4nc5cccnc5o4)c3)cc2)C1 [Example 45A.92] | 99.7
Nc1ncc(-c2ccc(CN3CCOCC3)cc2)cc1-c1nc2cnccc2o1 | 98.9

Report % Axl tyrosine kinase inhibition at 1 μM concentration for Nc1ncc(-c2ccc(C(=O)NCCN3CCS(=O)(=O)CC3)cc2)cc1-c1nc2cccnc2o1 [Example 45A.12] tested on recombinant Axl tyrosine kinase (Homo sapiens, UniProt P30530).
96.3

For COCC(=O)N1CCC(n2cc(-c3cnc(N)c(-c4nc5cccnc5o4)c3)cn2)CC1 then?
99.8

Also, CN1CCC(n2cc(-c3cnc(N)c(-c4nc5ccc(F)cc5o4)c3)cn2)CC1 please.
96.6

Further, for CN1CCC(n2cc(-c3cnc(N)c(-c4nc5cc(F)ccc5o4)c3)cn2)CC1 ?
99.9

Queued: Nc1ncc(-c2ccc(C(=O)NCCCN3CCNCC3)cc2)cc1-c1nc2cccnc2o1 [Example 45A.101]
99.1

Try Nc1ncc(-c2ccc(OC3CCCNC3)cc2)cc1-c1nc2ncccc2o1 (stereo not drawn) [Example 43B.30] next.
98.9

====

- TESTED SYSTEM: recombinant Axl tyrosine kinase (Homo sapiens)
- Construct: encompassing amino acids 473 to 894 of Axl; GST (N); made in house; host or cells: SF126 insect cells
- Sequence (P30530 473-894): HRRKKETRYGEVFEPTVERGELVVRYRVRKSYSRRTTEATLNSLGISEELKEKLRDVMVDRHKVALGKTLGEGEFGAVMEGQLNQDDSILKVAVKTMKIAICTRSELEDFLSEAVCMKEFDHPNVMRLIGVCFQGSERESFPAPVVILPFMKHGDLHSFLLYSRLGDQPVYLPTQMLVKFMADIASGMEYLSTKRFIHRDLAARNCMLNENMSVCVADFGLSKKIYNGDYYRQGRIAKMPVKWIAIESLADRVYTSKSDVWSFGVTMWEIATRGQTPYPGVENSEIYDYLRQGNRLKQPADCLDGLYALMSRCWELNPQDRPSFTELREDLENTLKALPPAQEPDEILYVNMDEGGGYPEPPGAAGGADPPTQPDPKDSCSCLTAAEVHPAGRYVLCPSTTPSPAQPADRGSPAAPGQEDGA
- TEST DESCRIPTION: In vitro Axl kinase assay (AlphaScreen), Test (a)
- Assay type: biochemical
- CONDITION NOTES: test compound at 1 μM; first value quoted
MEASURED PROPERTY: % Axl tyrosine kinase inhibition at 1 μM concentration (%)
Form entry: value (%) — number only.

COMPOUND | READING
Nc1ncc(-c2ccc(C(=O)N3CCC(O)CC3)cc2)cc1-c1nc2ccncc2o1 [Example 11A.2] | 97.5
N#CCc1cccc(-c2cnc(N)c(-c3nc4ccccc4o3)n2)c1 | 99.6
CNC(=O)c1cccc2nc(-c3cc(-c4cnn(C5CCN(C)CC5)c4)cnc3N)oc12 | 100.0
Nc1ncc(-c2cccc(N3CCCCC3)c2)cc1-c1nc2cnccc2o1 | 85.8
Nc1ncc(-c2cnn(C3CCNC3)c2)cc1-c1nc2ccccc2o1 (centres unmarked) | 99.9
Nc1ncc(-c2ccc(C(=O)NCCN3CCCCCC3)cc2)cc1-c1nc2cccnc2o1 [Example 45A.32] | 99.6
Nc1ncc(-c2ccc(C(=O)N3CCC(O)CC3)cc2)cc1-c1nc2ccccc2o1 | 98.9

What does the data say about its % Axl tyrosine kinase inhibition at 1 μM concentration? Entry: CO[C@H](C)C(=O)N1CCC(n2cc(-c3cnc(N)c(-c4nc5ncccc5o4)c3)cn2)CC1
98.1

====

Attribute: % Axl tyrosine kinase inhibition at 1 μM concentration
- TESTED SYSTEM: recombinant Axl tyrosine kinase (Homo sapiens)
- Construct: encompassing amino acids 473 to 894 of Axl; GST (N); made in house; host or cells: SF126 insect cells
- Sequence (P30530 473-894): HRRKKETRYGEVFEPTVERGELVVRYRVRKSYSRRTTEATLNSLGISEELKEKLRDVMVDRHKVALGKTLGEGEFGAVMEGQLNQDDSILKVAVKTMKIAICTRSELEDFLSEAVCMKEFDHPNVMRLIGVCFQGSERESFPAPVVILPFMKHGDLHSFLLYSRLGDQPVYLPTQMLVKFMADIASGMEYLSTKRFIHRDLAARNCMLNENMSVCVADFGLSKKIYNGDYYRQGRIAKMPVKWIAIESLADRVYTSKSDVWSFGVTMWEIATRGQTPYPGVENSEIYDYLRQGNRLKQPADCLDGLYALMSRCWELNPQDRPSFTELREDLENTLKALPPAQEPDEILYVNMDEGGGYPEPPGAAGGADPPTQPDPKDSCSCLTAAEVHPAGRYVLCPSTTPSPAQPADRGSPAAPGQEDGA
- TEST DESCRIPTION: In vitro Axl kinase assay (AlphaScreen), Test (a)
- Type: biochemical
- CONDITION NOTES: test compound at 1 μM; first value quoted
Reply with just the number (in %).

COMPOUND | TESTED SYSTEM | UNITS TEXT | READING
Nc1ncc(-c2cnc3ccccc3c2)cc1-c1nc2ccccc2o1 | recombinant Axl tyrosine kinase (Homo sapiens) | % | 88.9
Cc1c(-c2cnc(N)c(-c3nc4ccccc4o3)c2)cnn1C1CCN(C)CC1 | recombinant Axl tyrosine kinase (Homo sapiens) | % | 100.0
Nc1ncc(-c2ccc(C(=O)NC3CCNCC3)cc2)cc1-c1nc2cccnc2o1 [Example 45A.103] | recombinant Axl tyrosine kinase (Homo sapiens) | % | 97.3
Nc1ncc(-c2cnn(CC3CNC3)c2)cc1-c1nc2ccccc2o1 | recombinant Axl tyrosine kinase (Homo sapiens) | % | 99.1

Form field: reported % Axl tyrosine kinase inhibition at 1 μM concentration of Nc1ncc(-c2cnn(C3CCOCC3)c2)cc1-c1nc2ccccc2o1
99.8

What do you get for Nc1ncc(-c2ccc(OCCN3CCOCC3)cc2)cc1-c1nc2cccnc2o1 [Example 43A.2] ?
97.2

Entry COCc1nn(C2CCNCC2)cc1-c1cnc(N)c(-c2nc3cccc(OC)c3o2)c1 please
100.0

Moving on to Nc1ncc(-c2ccnc3ccccc23)cc1-c1nc2ccccc2o1
60.3

Same question, COc1cc(-c2cnc(N)c(-c3nc4ncccc4o3)c2)ccc1OCCCN1CCN(S(C)(=O)=O)CC1 [Example 43C.15] this time
97.2

Now consider NCCCOc1ccc(-c2cnc(N)c(-c3nc4ncccc4o3)c2)cc1 [Example 43B.31] .
97.1

Then what about the compound CN(C)C1(CNC(=O)c2ccc(-c3cnc(N)c(-c4nc5cccnc5o4)c3)cc2)CCCCC1 [Example 45A.41] ?
99.0
